Test: Kinetic aqueous solubility of compound in phosphate buffer at pH 7.4 incubated for 1 hrs by CLND assay
Type: physicochemical
Details: read-out: Kinetic_solubility
log10 solubility kinetic at 1 h listing for selected molecules.
Answers are given as log10 of solubility kinetic at 1 h in µM.

MOLECULE: COc1cccc(NC(=O)COc2cc(C)nc3ccc(OC)cc23)c1
log10 solubility kinetic at 1 h: 1.54
--
MOLECULE: COc1ccc2nc(C)cc(OCC(=O)NCc3cc(C)cc(C)c3)c2c1
log10 solubility kinetic at 1 h: 1.96
--
MOLECULE: Cc1cc(C)cc(NC(=O)COc2cc(C)nc3ccc(Cl)cc23)c1
log10 solubility kinetic at 1 h: 0.90
--
MOLECULE: COc1ccc2nc(C)cc(OCC(=O)Nc3ccc(F)cc3)c2c1
log10 solubility kinetic at 1 h: 2.02
--
MOLECULE: COc1ccc(NC(=O)COc2cc(C)nc3ccc(OC)cc23)cc1
log10 solubility kinetic at 1 h: 2.03

(Q) # log10 solubility kinetic at 1 h lookup, item COc1ccc2nc(C)cc(OCC(=O)Nc3cc(C)c(OC)c(C)c3)c2c1
(A) 1.23

(Q) # log10 solubility kinetic at 1 h lookup, item Cc1cc(C)cc(NC(=O)COc2cc(C(F)(F)F)nc3ccc(OC(F)(F)F)cc23)c1
(A) 1.53

(Q) # log10 solubility kinetic at 1 h lookup, item COc1ccc2nc(C)cc(OCC(=O)N(C)c3cc(C)cc(C)c3)c2c1
(A) 2.57

(Q) # log10 solubility kinetic at 1 h lookup, item COc1ccc2nc(C(F)(F)F)cc(OCC(=O)Nc3cc(C)cc(C)c3)c2c1
(A) 1.18

(Q) # log10 solubility kinetic at 1 h lookup, item Cc1cc(C)cc(NC(=O)COc2cc(C)nc3ccc(F)cc23)c1
(A) 1.45
